Hey, just so you know, these numbers are from PubChem BioAssay AID2094.

test: modulation of AI-2 quorum-sensing luminescence – JMH597 strain, luminescence/OD600 ratio, primary screen (AID 2094); conditions: Vibrio harveyi JMH597 AI-2 luminescence/OD600 ratio, 9 h; at 7.5 µM; stronger effect = lower value; 0 = neutral-control median; strain lacks LuxN and CqsS sensors;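 note: luminescence divided by OD600 gain over 9 h not by final OD600 alone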
Hit rate of the full screen: of about 300,000 compounds, about 1,200 (0.4%) were called active. This excerpt belongs to a sample that is enriched for actives.
Binary label based on activity change with cut-off 20%: below gives 1, not below gives 0.

Worked cases, answers included:
- structure-string: "Cc1ccc(Oc2cnn(-c3ccccc3)c(=O)c2Br)cc1"
  label: 1
- structure-string: "O=S(=O)(Nc1ccccn1)c1ccc(Oc2ccccc2)cc1"
  label: 0
- structure-string: "O=S1(=O)N=C(N(CCO)/N=C/c2ccccc2F)c2ccccc21"
  label: 1
- structure-string: "N/C(=N\\OC(=O)Cc1ccccc1[N+](=O)[O-])c1ccc(Br)cc1"
  label: 1
- structure-string: "O=S(=O)(Nc1ccccn1)c1cccc(S(=O)(=O)c2ccc(Cl)cc2)c1"
  label: 1

Hello, I'm reviewing records and need to know if activity change of Nc1c(-c2ccccc2)nnn1Cc1ccccc1 is below 20%. Could you check?
1

* * *

assay: modulation of AI-2 quorum-sensing luminescence – JMH597 strain, luminescence/OD600 ratio, primary screen (AID 2094); conditions: Vibrio harveyi JMH597 AI-2 luminescence/OD600 ratio, 9 h; at 7.5 µM; 0 = neutral-control median; strain lacks LuxN and CqsS sensors;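 note: luminescence divided by OD600 gain over 9 h not by final OD600 alone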
About 1,200 (0.4%) of roughly 300,000 compounds were called active. Cut-off read from the data, not from the text of the source: active = activity change below about -75% (passing the limit was not always enough); inconclusive = no clear call, values can overlap the other calls. The entries come from a sample that favours actives as a whole.
Just give me one of these, please: 1 (yes) = active, 0 (no) = inactive

Worked cases, answers included:
- compound: "O=C(Nc1ccc(Oc2ccccc2)cc1)c1ccco1"
  label: "1 (yes)"
- compound: "O=C(CC1SCCNC1=O)Nc1ccc(Cl)c(Cl)c1 (configuration not stated)"
  label: "1 (yes)"

Per the assay record, what outcome was assigned to O=C(Nc1nnc(C2COc3ccccc3O2)o1)c1ccc(F)cc1 (configuration not stated) ?
1 (yes)

Per the assay record, what outcome was assigned to NC(=O)c1ccc(NC(=O)COC(=O)c2ccc([N+](=O)[O-])cc2)cc1 ?
0 (no)

Per the assay record, what outcome was assigned to O=C(/C=C/c1ccco1)Nc1ccc(Oc2ccccc2)cc1 ?
1 (yes)

Per the assay record, what outcome was assigned to O=C(Nc1ccccc1)c1ccco1 ?
0 (no)

* * *

assay: modulation of AI-2 quorum-sensing luminescence – JMH597 strain, luminescence/OD600 ratio, primary screen (AID 2094); conditions: Vibrio harveyi JMH597 AI-2 luminescence/OD600 ratio, 9 h; at 7.5 µM; stronger effect = lower value; 0 = neutral-control median; strain lacks LuxN and CqsS sensors;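 note: luminescence divided by OD600 gain over 9 h not by final OD600 alone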
Hit rate of the full screen: of about 300,000 compounds, about 1,200 (0.4%) were called active. What follows is part of a selection rich in actives, with near analogues and random picks from the rest.
measure: activity change (%)
Report the figure in % without appending any unit label.

- molecule: "CCCCCCC(O)(CCN1CCCCC1)c1ccccc1 (configuration not stated)"
  measure: "activity change"
  units: "%"
  assay-result: 20

If you can, please state the reported activity change value of CC(C)(C)c1ccc(OC2=CS(=O)(=O)c3ccccc32)cc1 .
-84.2

If you can, please state the reported activity change value of Cc1ccc(C(=O)NNC(=O)c2ccncc2)cc1S(=O)(=O)N1CCCCC1 .
18

If you can, please state the reported activity change value of NC(=O)CN1CCCC1c1ccc2c(c1)OCCO2 (configuration not stated) .
22.1

If you can, please state the reported activity change value of Cc1cc(S(=O)(=O)N2CCOCC2)ccc1OCC(=O)N1CCOCC1 .
18.8

If you can, please state the reported activity change value of S=C(NCc1ccc(Cl)cc1)NC12CC3CC(CC(C3)C1)C2 .
-20.7

If you can, please state the reported activity change value of O=C(NCc1cccs1)C1CCN(S(=O)(=O)c2ccc(Cl)cc2)CC1 .
14.4

If you can, please state the reported activity change value of O=C(c1cc(-c2ccc(O)cc2)on1)N1CCOCC1 .
2.48

If you can, please state the reported activity change value of CCCCCc1ccc(-c2ccc(C(=O)O)cc2)nc1 .
-76

If you can, please state the reported activity change value of Cc1cccc(C)c1N1CCN(S(=O)(=O)N2CCOCC2)CC1 .
0.226
